# subject.of.test: UniProtKB O75907
# Sequence (O75907 whole entry): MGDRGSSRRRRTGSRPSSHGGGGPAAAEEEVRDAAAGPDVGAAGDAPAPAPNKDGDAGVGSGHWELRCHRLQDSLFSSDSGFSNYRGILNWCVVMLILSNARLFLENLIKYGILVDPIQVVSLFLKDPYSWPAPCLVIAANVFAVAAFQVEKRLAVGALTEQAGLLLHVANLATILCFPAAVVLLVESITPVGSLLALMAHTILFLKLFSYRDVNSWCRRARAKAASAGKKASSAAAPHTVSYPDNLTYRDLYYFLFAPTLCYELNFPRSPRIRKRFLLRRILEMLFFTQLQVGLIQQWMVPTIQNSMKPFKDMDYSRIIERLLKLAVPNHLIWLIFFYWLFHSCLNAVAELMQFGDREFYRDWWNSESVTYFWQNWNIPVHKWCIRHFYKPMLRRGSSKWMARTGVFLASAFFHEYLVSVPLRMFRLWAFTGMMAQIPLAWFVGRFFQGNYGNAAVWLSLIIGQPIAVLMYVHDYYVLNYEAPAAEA
# protocol.notes: Inhibition of recombinant human His6-tagged DGAT1 expressed in Sf9 insect cell membranes assessed as inhibition of triglyceride formation using diolein/oleyl-CoA as substrate after 30 mins by LC/MS/MS analysis
assay.endpoint: pIC50
Lab note: report pIC50 as minus log10 of the concentration in molar units, number only.

QUERY: Record lookup: for UniProtKB O75907, what pIC50 belongs to "COc1ccc(-c2nnc(-c3ccc4nc(-c5c(C)cc(CC(C)(C)C(=O)O)cc5C)[nH]c4c3)o2)cc1" ?
RESULT: 7.77

###

# subject.of.test: Diacylglycerol O-acyltransferase 1 (Mus musculus, UniProt Q9Z2A7)
# Sequence (Q9Z2A7 whole entry): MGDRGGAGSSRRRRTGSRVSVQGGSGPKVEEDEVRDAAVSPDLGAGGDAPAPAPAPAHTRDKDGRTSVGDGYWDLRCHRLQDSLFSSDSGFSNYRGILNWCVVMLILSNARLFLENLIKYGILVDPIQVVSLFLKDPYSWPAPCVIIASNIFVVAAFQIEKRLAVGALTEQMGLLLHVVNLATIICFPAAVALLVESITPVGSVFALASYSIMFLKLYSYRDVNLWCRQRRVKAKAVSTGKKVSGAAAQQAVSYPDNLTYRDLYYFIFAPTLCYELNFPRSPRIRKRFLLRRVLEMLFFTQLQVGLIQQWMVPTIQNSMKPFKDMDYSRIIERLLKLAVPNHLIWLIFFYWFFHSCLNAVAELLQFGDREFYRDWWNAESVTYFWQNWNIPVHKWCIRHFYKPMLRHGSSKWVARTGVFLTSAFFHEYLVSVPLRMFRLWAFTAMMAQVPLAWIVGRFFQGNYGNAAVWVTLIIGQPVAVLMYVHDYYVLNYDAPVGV
# protocol.notes: Inhibition of DGTA1 in mouse C2C12 cells assessed as inhibition of triglyceride formation after 2 hrs by LC/MS/MS analysis
# Assay type: cell-based
assay.endpoint: IC50 (µM)
Your answer is read as µM, so omit the unit and give the number.

QUERY: Could you share which IC50 value was measured for "Cc1cc(CC(C)(C)C(=O)O)cc(C)c1-c1nc2ccc(C(=O)Nc3ccc4ccccc4n3)cc2[nH]1" ?
RESULT: 0.954

QUERY: Could you share which IC50 value was measured for "Cc1cc(CCC(=O)O)cc(C)c1-c1nc2ccc(C(=O)Nc3ccc4ccccc4n3)cc2[nH]1" ?
RESULT: 0.913

QUERY: Could you share which IC50 value was measured for "COc1ccc(-c2nnc(-c3ccc4nc(-c5c(C)cc(CCC(=O)O)cc5C)[nH]c4c3)o2)cc1" ?
RESULT: 0.181

QUERY: Could you share which IC50 value was measured for "COc1ccc(-c2nnc(-c3ccc4nc(-c5c(C)cc(CC(C)(C)C(=O)O)cc5C)[nH]c4c3)o2)cc1" ?
RESULT: 0.151

###

# protocol.notes: Cmax in Sprague-Dawley rat at 3 mg/kg, po by LC/MS/MS analysis
# Assay type: ADME, organism-based
# Set-up: dose 3 mg/kg, route oral
# experimental.conditions: in vivo
assay.endpoint: Cmax (nM)
Your answer is read as nM, so omit the unit and give the number.

Answered examples (2):
>>> numeric_readout("COc1ccc(-c2nnc(-c3ccc4nc(-c5c(C)cc(CCC(=O)O)cc5C)[nH]c4c3)o2)cc1")
40
>>> numeric_readout("Cc1cc(CC(C)(C)C(=O)O)cc(C)c1-c1nc2ccc(C(=O)Nc3ccc4ccccc4n3)cc2[nH]1")
1720

QUERY: Could you share which Cmax value was measured for "COc1ccc(-c2nnc(-c3ccc4nc(-c5c(C)cc(CC(C)(C)C(=O)O)cc5C)[nH]c4c3)o2)cc1" ?
RESULT: 3550

###

# protocol.notes: Plasma concentration in high fat diet-fed dog at 5 mg/kg, po administered via gelatin capsule after 90 mins
assay.endpoint: concentration at 1.5 h (nM)
Your answer is read as nM, so omit the unit and give the number.

QUERY: Could you share which concentration at 1.5 h value was measured for "COc1ccc(-c2nnc(-c3ccc4nc(-c5c(C)cc(CC(C)(C)C(=O)O)cc5C)[nH]c4c3)o2)cc1.[Na+]" ?
RESULT: 738

###

# protocol.notes: AUC (0 to 8 hrs) in Sprague-Dawley rat at 1mg/kg, iv by LC/MS/MS analysis
# Format: ADME, organism-based
# Parameters: time < 8 hr, dose 1 mg/kg, route intravenous
# experimental.conditions: in vivo
assay.endpoint: AUC(0-t) at 8 h (µM·h)
Your answer is read as µM·h, so omit the unit and give the number.

Answered examples (3):
>>> numeric_readout("COc1ccc(-c2nnc(-c3ccc4nc(-c5c(C)cc(CCC(=O)O)cc5C)[nH]c4c3)o2)cc1")
1.69
>>> numeric_readout("Cc1cc(CC(C)(C)C(=O)O)cc(C)c1-c1nc2ccc(C(=O)Nc3ccc4ccccc4n3)cc2[nH]1")
6.11
>>> numeric_readout("Cc1cc(CCC(=O)O)cc(C)c1-c1nc2ccc(C(=O)Nc3ccc4ccccc4n3)cc2[nH]1")
5.23

Next compound, please.
QUERY: Could you share which AUC(0-t) at 8 h value was measured for "COc1ccc(-c2nnc(-c3ccc4nc(-c5c(C)cc(CC(C)(C)C(=O)O)cc5C)[nH]c4c3)o2)cc1" ?
RESULT: 3.86

###

Catalogue of molecules with associated Tmax
# protocol.notes: Tmax in Sprague-Dawley rat 3 mg/kg, po by LC/MS/MS analysis
# Format: ADME, organism-based
# experimental.conditions: in vivo
Your answer is read as min, so omit the unit and give the number.

Answered examples (2):
>>> numeric_readout("COc1ccc(-c2nnc(-c3ccc4nc(-c5c(C)cc(CC(C)(C)C(=O)O)cc5C)[nH]c4c3)o2)cc1")
72
>>> numeric_readout("Cc1cc(CC(C)(C)C(=O)O)cc(C)c1-c1nc2ccc(C(=O)Nc3ccc4ccccc4n3)cc2[nH]1")
30

QUERY: Could you share which Tmax value was measured for "COc1ccc(-c2nnc(-c3ccc4nc(-c5c(C)cc(CCC(=O)O)cc5C)[nH]c4c3)o2)cc1" ?
RESULT: 30

###

# protocol.notes: AUC (0 to 8 hrs) in Sprague-Dawley rat at 3 mg/kg, po by LC/MS/MS analysis
# Type: ADME, organism-based
# Set-up: dose 3 mg/kg, time < 8 hr, route oral
# experimental.conditions: in vivo
assay.endpoint: AUC(0-t) at 8 h (µM·h)
Your answer is read as µM·h, so omit the unit and give the number.

>>> numeric_readout("COc1ccc(-c2nnc(-c3ccc4nc(-c5c(C)cc(CC(C)(C)C(=O)O)cc5C)[nH]c4c3)o2)cc1")
10.4
>>> numeric_readout("COc1ccc(-c2nnc(-c3ccc4nc(-c5c(C)cc(CCC(=O)O)cc5C)[nH]c4c3)o2)cc1")
0.103

Next molecule, please.
QUERY: Could you share which AUC(0-t) at 8 h value was measured for "Cc1cc(CC(C)(C)C(=O)O)cc(C)c1-c1nc2ccc(C(=O)Nc3ccc4ccccc4n3)cc2[nH]1" ?
RESULT: 4.23

###

# protocol.notes: AUC (0 to 8 hrs) in Sprague-Dawley rat at 5 mg/kg, po by LC/MS/MS analysis
# Format: ADME, organism-based
# Design: dose 5 mg/kg, time < 8 hr, route oral
# experimental.conditions: in vivo
assay.endpoint: AUC(0-t) at 8 h (nM·h)
Your answer is read as nM·h, so omit the unit and give the number.

QUERY: Could you share which AUC(0-t) at 8 h value was measured for "Cc1cc(CCC(=O)O)cc(C)c1-c1nc2ccc(C(=O)Nc3ccc4ccccc4n3)cc2[nH]1" ?
RESULT: 405

###

# protocol.notes: Oral bioavailability in Sprague-Dawley rat at 3 mg/kg by LC/MS/MS analysis
# Type: ADME, organism-based
# experimental.conditions: in vivo
Catalogue of compounds with associated bioavailability
Your answer is read as %, so omit the unit and give the number.

Answered examples (2):
>>> numeric_readout("COc1ccc(-c2nnc(-c3ccc4nc(-c5c(C)cc(CC(C)(C)C(=O)O)cc5C)[nH]c4c3)o2)cc1")
90
>>> numeric_readout("Cc1cc(CC(C)(C)C(=O)O)cc(C)c1-c1nc2ccc(C(=O)Nc3ccc4ccccc4n3)cc2[nH]1")
23

QUERY: Could you share which bioavailability value was measured for "COc1ccc(-c2nnc(-c3ccc4nc(-c5c(C)cc(CCC(=O)O)cc5C)[nH]c4c3)o2)cc1" ?
RESULT: 2

###

# protocol.notes: Efflux ratio of permeability across basolateral to apical side over apical to basolateral side in human Caco2 cells
# Assay type: ADME, cell-based
# experimental.conditions: Caco-2
assay.endpoint: efflux ratio
Please give only the number in your answer, with no unit.

QUERY: Could you share which efflux ratio value was measured for "COc1ccc(-c2nnc(-c3ccc4nc(-c5c(C)cc(CC(C)(C)C(=O)O)cc5C)[nH]c4c3)o2)cc1" ?
RESULT: 2.4

###

# subject.of.test: Diacylglycerol O-acyltransferase 2 (Homo sapiens)
# Sequence (Q96PD7 whole entry): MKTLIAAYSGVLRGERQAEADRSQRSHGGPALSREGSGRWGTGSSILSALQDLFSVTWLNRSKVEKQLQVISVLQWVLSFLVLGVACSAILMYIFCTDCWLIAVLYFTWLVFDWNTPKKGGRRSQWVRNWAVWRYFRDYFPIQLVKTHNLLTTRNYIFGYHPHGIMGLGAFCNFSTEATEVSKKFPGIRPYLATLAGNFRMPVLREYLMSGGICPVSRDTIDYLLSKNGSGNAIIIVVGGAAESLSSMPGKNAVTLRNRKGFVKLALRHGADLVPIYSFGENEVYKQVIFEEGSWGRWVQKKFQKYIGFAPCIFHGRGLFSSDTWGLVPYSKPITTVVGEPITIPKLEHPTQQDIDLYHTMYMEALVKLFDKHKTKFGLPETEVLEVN
# protocol.notes: Inhibition of DGAT2 (unknown origin)
assay.endpoint: IC50

QUERY: Could you share which IC50 value was measured for "COc1ccc(-c2nnc(-c3ccc4nc(-c5c(C)cc(CC(C)(C)C(=O)O)cc5C)[nH]c4c3)o2)cc1" ?
RESULT: > 10 µM

###

# protocol.notes: Volume of distribution at steady state in Sprague-Dawley rat at 1 mg/kg, iv by LC/MS/MS analysis
# Assay type: ADME, organism-based
# experimental.conditions: in vivo, read-out: Vdss
Catalogue of molecules with associated Vd
Your answer is read as L/kg, so omit the unit and give the number.

Answered examples (3):
>>> numeric_readout("COc1ccc(-c2nnc(-c3ccc4nc(-c5c(C)cc(CCC(=O)O)cc5C)[nH]c4c3)o2)cc1")
0.7
>>> numeric_readout("COc1ccc(-c2nnc(-c3ccc4nc(-c5c(C)cc(CC(C)(C)C(=O)O)cc5C)[nH]c4c3)o2)cc1")
0.6
>>> numeric_readout("Cc1cc(CC(C)(C)C(=O)O)cc(C)c1-c1nc2ccc(C(=O)Nc3ccc4ccccc4n3)cc2[nH]1")
0.4

QUERY: Could you share which Vd value was measured for "Cc1cc(CCC(=O)O)cc(C)c1-c1nc2ccc(C(=O)Nc3ccc4ccccc4n3)cc2[nH]1" ?
RESULT: 0.4
